# TARGET_SYSTEM: Adrenergic receptor alpha-1 (Rattus norvegicus, UniProt P15823+P23944+P43140)
# MEASUREMENT_DESCRIPTION: Displacement of [3H]prazosin from alpha1-ARs in CRL:CD(SD)BR-COBS rat brain cortex after 30 mins by liquid scintillation spectrometry
Label T when Ki is strictly below 10 nM; at or above that, label F.

Field: example entries. Status: answers known.
[[record]]
query_smiles = "COc1ccccc1N1CCN(CCn2c(=O)[nH]c3[nH]c(-c4ccc(-c5ccccc5)cc4)cc3c2=O)CC1"
assigned_class = "F"

[[record]]
query_smiles = "O=c1[nH]c2[nH]c(-c3ccc(OCCOc4ccccc4)cc3)cc2c(=O)n1CCN1CCN(c2ccccc2Cl)CC1"
assigned_class = "F"

[[record]]
query_smiles = "COc1ccccc1N1CCN(CCn2c(=O)[nH]c3[nH]c(-c4ccc(Oc5ccccc5)cc4)cc3c2=O)CC1"
assigned_class = "F"

[[record]]
query_smiles = "COc1ccccc1N1CCN(CCn2c(=O)[nH]c3cc(C(C)(C)C)[nH]c3c2=O)CC1"
assigned_class = "T"

[[record]]
query_smiles = "COc1ccccc1N1CCN(CCn2c(=O)[nH]c3c(-c4ccccc4)c[nH]c3c2=O)CC1"
assigned_class = "T"

[[record]]
query_smiles = "COc1ccccc1N1CCN(CCn2c(=O)[nH]c3[nH]c(-c4ccc(OCc5ccccc5)cc4)cc3c2=O)CC1"
assigned_class = "F"


Problem: Is the reported Ki for "O=c1[nH]c2[nH]c(-c3ccccc3)c(-c3ccccc3)c2c(=O)n1CCN1CCN(c2ccccc2Cl)CC1" strictly below 10 nM?
Result: F

These measurements were taken from ChEMBL document CHEMBL1817545.
